Test system: Enterococcus faecium
Assay: Antibacterial activity against vancomycin-resistant Enterococcus faecium 12-1 assessed as prevention of visible bacterial growth incubated for 18 hrs by broth dilution method
Type: functional
Conditions: 12-1, 18 h
MEASURED METRIC: MIC

Suppose we examine the compound COc1cc2oc3c(c(=O)c2cc1O)C(=O)C1=C(CCc2cc4c(c(O)c21)C(=O)N1CCO[C@]1(C)C4)C3=O ; what MIC value has been reported?
0.25 µg/mL

Now give it for COc1cc2oc3c(O)c4c(c(O)c3c(=O)c2cc1OC)-c1c(cc2c(c1O)C(=O)N1CCO[C@]1(C)C2)CC4 too.
0.03 µg/mL

Ok, now COc1cc2oc3c(O)c4c(c(O)c3c(=O)c2cc1O)-c1c(cc2c(c1O)C(=O)N1CCO[C@]1(C)C2)CC4
0.03 µg/mL

Same read-out for COc1cc2oc3c(c(=O)c2cc1OC)C(=O)C1=C(CCc2cc4c(c(O)c21)C(=O)N1CCO[C@]1(C)C4)C3=O ?
0.12 µg/mL

Repeat for the following compound: C[C@H]1COc2c(N3CCN(C)CC3)c(F)cc3c(=O)c(C(=O)O)cn1c23.C[C@H]1COc2c(N3CCN(C)CC3)c(F)cc3c(=O)c(C(=O)O)cn1c23.O
128 µg/mL

Another compound to look at: COc1cc2oc3c(c(=O)c2cc1OC)C(=O)c1c(ccc2cc4c(c(O)c12)C(=O)N1CCO[C@]1(C)C4)C3=O
1 µg/mL

----------
System: SW1990
Assay: Cytotoxicity against human SW1990 cells incubated for 72 hrs by MTT assay
Assay type: functional, cell-based
Details: SW1990, 72 h
pIC50: −log10 of the molar value.
I would appreciate it if you labelled entries rule met when pIC50 is 8 or higher, otherwise rule not met.

Identify whether the reported pIC50 of the following molecule is 8 or greater: COc1cc2oc3c(O)c4c(c(O)c3c(=O)c2cc1OC)-c1c(cc2c(c1O)C(=O)N1CCO[C@]1(C)C2)CC4
rule met

Also need COc1cc2oc3c(O)c4c(c(O)c3c(=O)c2cc1O)-c1c(cc2c(c1O)C(=O)N1CCO[C@]1(C)C2)CC4 , thanks.
rule met

Would you kindly repeat that for COc1cc2oc3c(c(=O)c2cc1O)C(=O)C1=C(CCc2cc4c(c(O)c21)C(=O)N1CCO[C@]1(C)C4)C3=O ?
rule not met

What do you have for COc1cc2oc3c(c(=O)c2cc1OC)C(=O)C1=C(CCc2cc4c(c(O)c21)C(=O)N1CCO[C@]1(C)C4)C3=O ?
rule met

Request: COc1cc2oc3c(c(=O)c2cc1OC)C(=O)c1c(ccc2cc4c(c(O)c12)C(=O)N1CCO[C@]1(C)C4)C3=O
rule not met

----------
Assign pIC50 to each entry below.
System: PC-3
Assay: Cytotoxicity against human PC3 cells incubated for 72 hrs by MTT assay
Assay type: functional, cell-based
Settings: PC-3, 72 h
Quick note: pIC50 means taking -log10 of the concentration in moles per liter.

Give pIC50 (PC-3) of the following molecule: COc1cc2oc3c(c(=O)c2cc1O)C(=O)C1=C(CCc2cc4c(c(O)c21)C(=O)N1CCO[C@]1(C)C4)C3=O
7.46

Consider next the molecule COc1cc2oc3c(c(=O)c2cc1OC)C(=O)c1c(ccc2cc4c(c(O)c12)C(=O)N1CCO[C@]1(C)C4)C3=O in the same way.
5.88

Note, next up: COc1cc2oc3c(c(=O)c2cc1OC)C(=O)C1=C(CCc2cc4c(c(O)c21)C(=O)N1CCO[C@]1(C)C4)C3=O
8.46

Record: COc1cc2oc3c(O)c4c(c(O)c3c(=O)c2cc1OC)-c1c(cc2c(c1O)C(=O)N1CCO[C@]1(C)C2)CC4
8.66

Here is the next molecule: COc1cc2oc3c(O)c4c(c(O)c3c(=O)c2cc1O)-c1c(cc2c(c1O)C(=O)N1CCO[C@]1(C)C2)CC4
8.36

----------
Tested on: Enterococcus faecalis
Assay: Antibacterial activity against vancomycin-resistant Enterococcus faecalis ATCC 51299 assessed as prevention of visible bacterial growth incubated for 18 hrs by broth dilution method
Assay type: functional
Conditions: ATCC 51299, 18 h
// assign Satisfied if MIC falls strictly below 0.1 µg/mL, else Not satisfied (ties count as Not satisfied)

Would you kindly verify if MIC of COc1cc2oc3c(O)c4c(c(O)c3c(=O)c2cc1O)-c1c(cc2c(c1O)C(=O)N1CCO[C@]1(C)C2)CC4 is strictly less than 0.1 µg/mL?
Satisfied

Also COc1cc2oc3c(c(=O)c2cc1OC)C(=O)c1c(ccc2cc4c(c(O)c12)C(=O)N1CCO[C@]1(C)C4)C3=O ?
Not satisfied

Queued: C[C@H]1COc2c(N3CCN(C)CC3)c(F)cc3c(=O)c(C(=O)O)cn1c23.C[C@H]1COc2c(N3CCN(C)CC3)c(F)cc3c(=O)c(C(=O)O)cn1c23.O
Not satisfied

COc1cc2oc3c(c(=O)c2cc1O)C(=O)C1=C(CCc2cc4c(c(O)c21)C(=O)N1CCO[C@]1(C)C4)C3=O , same question.
Not satisfied

And for COc1cc2oc3c(c(=O)c2cc1OC)C(=O)C1=C(CCc2cc4c(c(O)c21)C(=O)N1CCO[C@]1(C)C4)C3=O ?
Not satisfied

What do you have for COc1cc2oc3c(O)c4c(c(O)c3c(=O)c2cc1OC)-c1c(cc2c(c1O)C(=O)N1CCO[C@]1(C)C2)CC4 ?
Satisfied

----------
Test system: Staphylococcus aureus
Experiment: Antibacterial activity against methicillin-resistant Staphylococcus aureus 16-30 assessed as prevention of visible bacterial growth incubated for 18 hrs by broth dilution method
Format: functional
Details: 16-30, 18 h
MEASURED METRIC: log10(MIC) (log10 of the value in µg/mL)
Annotation: log10 of MIC, µg/mL basis.

log10(MIC) for COc1cc2oc3c(c(=O)c2cc1OC)C(=O)c1c(ccc2cc4c(c(O)c12)C(=O)N1CCO[C@]1(C)C4)C3=O ?
-0.30

Then this compound: C[C@H]1COc2c(N3CCN(C)CC3)c(F)cc3c(=O)c(C(=O)O)cn1c23.C[C@H]1COc2c(N3CCN(C)CC3)c(F)cc3c(=O)c(C(=O)O)cn1c23.O
1.51

Now give it for COc1cc2oc3c(O)c4c(c(O)c3c(=O)c2cc1O)-c1c(cc2c(c1O)C(=O)N1CCO[C@]1(C)C2)CC4 too.
-2.10

Another compound: COc1cc2oc3c(c(=O)c2cc1OC)C(=O)C1=C(CCc2cc4c(c(O)c21)C(=O)N1CCO[C@]1(C)C4)C3=O
-0.92

Try COc1cc2oc3c(O)c4c(c(O)c3c(=O)c2cc1OC)-c1c(cc2c(c1O)C(=O)N1CCO[C@]1(C)C2)CC4 next.
-1.22

What about COc1cc2oc3c(c(=O)c2cc1O)C(=O)C1=C(CCc2cc4c(c(O)c21)C(=O)N1CCO[C@]1(C)C4)C3=O ?
-0.92

----------
Tested on: Shigella flexneri
Test: Antibacterial activity against Shigella flexneri ATCC 12022 assessed as prevention of visible bacterial growth incubated for 18 hrs by broth dilution method
Assay type: functional, organism-based
Activity calls are given as the source filed them. No cut-off for these calls is given here.
MEASURED METRIC: Activity

COc1cc2oc3c(O)c4c(c(O)c3c(=O)c2cc1OC)-c1c(cc2c(c1O)C(=O)N1CCO[C@]1(C)C2)CC4 inactive
COc1cc2oc3c(c(=O)c2cc1O)C(=O)C1=C(CCc2cc4c(c(O)c21)C(=O)N1CCO[C@]1(C)C4)C3=O inactive
COc1cc2oc3c(c(=O)c2cc1OC)C(=O)C1=C(CCc2cc4c(c(O)c21)C(=O)N1CCO[C@]1(C)C4)C3=O inactive
COc1cc2oc3c(O)c4c(c(O)c3c(=O)c2cc1O)-c1c(cc2c(c1O)C(=O)N1CCO[C@]1(C)C2)CC4 inactive

----------
Tested on: Enterococcus faecalis
Test: Antibacterial activity against vancomycin-resistant Enterococcus faecalis ATCC 51575 assessed as prevention of visible bacterial growth incubated for 18 hrs by broth dilution method
Type: functional
Conditions: ATCC 51575, 18 h
For each of the compounds below, state its MIC.
Please state the figure in µg/mL; there is no need to write the unit.

// lookup MIC | system=Enterococcus faecalis | key= COc1cc2oc3c(c(=O)c2cc1OC)C(=O)c1c(ccc2cc4c(c(O)c12)C(=O)N1CCO[C@]1(C)C4)C3=O
0.12

One more compound: C[C@H]1COc2c(N3CCN(C)CC3)c(F)cc3c(=O)c(C(=O)O)cn1c23.C[C@H]1COc2c(N3CCN(C)CC3)c(F)cc3c(=O)c(C(=O)O)cn1c23.O
2

Ok, now COc1cc2oc3c(c(=O)c2cc1O)C(=O)C1=C(CCc2cc4c(c(O)c21)C(=O)N1CCO[C@]1(C)C4)C3=O
0.5

Subsequent entry: COc1cc2oc3c(O)c4c(c(O)c3c(=O)c2cc1O)-c1c(cc2c(c1O)C(=O)N1CCO[C@]1(C)C2)CC4
0.016

Next entry: COc1cc2oc3c(c(=O)c2cc1OC)C(=O)C1=C(CCc2cc4c(c(O)c21)C(=O)N1CCO[C@]1(C)C4)C3=O
0.12

What about this compound? COc1cc2oc3c(O)c4c(c(O)c3c(=O)c2cc1OC)-c1c(cc2c(c1O)C(=O)N1CCO[C@]1(C)C2)CC4
0.12
